The measured values listed here are drawn from patent EP0520200B1.

System: voltage operated calcium channels
Test: Depolarization (potassium) induced 45Ca uptake into synaptosomes
Assay type: biochemical, male Wistar rat
Conditions: concentration inhibiting 50% of potassium stimulated uptake of 45Ca; rat cerebral cortex synaptosomes; corrected for basal uptake in non-depolarized samples
observed property: IC50 (nM)

INSERT INTO assay_data (cpd_smiles, unit_string, observed) VALUES
  ('Nc1nc2cc(F)ccc2n1-c1cccc(N2CCCC2)c1', 'nM', 2000);

1. Nc1nc2cc(C(F)(F)F)ccc2n1-c1cc(Cl)ccc1O
2. COc1ccc(OC)c(-n2c(N)nc3cc(C(F)(F)F)ccc32)c1
Prompt line: // max by IC50 over [ 1 , 2 ] Please respond with the label that marks your chosen entry.
Response line: 1
